# System: CFPAC-1 (Pancreatic Carcinoma)
# Protocol Details: combination Emax (second highest fraction inhibited in the dose matrix, 72 h); higher = more inhibition; extreme values may be limits of the assay
Quick rule: combination Emax of at least 0.6 means 1, below that means -1.

[[record]]
compound = "CN(CCO)CC[C@H](CSc1ccccc1)Nc1ccc(S(=O)(=O)NC(=O)c2ccc(N3CCC([C@@H](O)c4ccccc4-c4ccc(Cl)cc4)CC3)cc2)cc1S(=O)(=O)C(F)(F)F [AZD4320] + C1CN(CCC1(C(=O)N[C@@H](CCO)C2=CC=C(C=C2)Cl)N)C3=NC=NC4=C3C=CN4 [Capivasertib] (first compound max 1 µM, 7x7, partner max 3 µM)"
group_label = -1

[[record]]
compound = "COc1nnc2ccc(N3CCC(c4ccc(OCCN5CCN(C)C(=O)[C@H]5C)cc4)CC3)nn12 [AZD5153] + C[C@@H]1COCCN1C2=NC(=NC(=C2)C3(CC3)[S@](=N)(=O)C)C4=C5C=CNC5=NC=C4 [AZD6738] (first compound max 1 µM, 7x7, partner max 10 µM)"
group_label = -1

[[record]]
compound = "COc1nnc2ccc(N3CCC(c4ccc(OCCN5CCN(C)C(=O)[C@H]5C)cc4)CC3)nn12 [AZD5153] + CCN(CCO)CCCOc1ccc2c(Nc3cc(CC(=O)Nc4cccc(F)c4)[nH]n3)ncnc2c1 [AZD2811] (first compound max 1 µM, 7x7, partner max 1 µM)"
group_label = -1


Exam item: Would you say CN(CCO)CC[C@H](CSc1ccccc1)Nc1ccc(S(=O)(=O)NC(=O)c2ccc(N3CCC([C@@H](O)c4ccccc4-c4ccc(Cl)cc4)CC3)cc2)cc1S(=O)(=O)C(F)(F)F [AZD4320] + C[C@@H]1COCCN1C2=NC(=NC(=C2)C3(CC3)[S@](=N)(=O)C)C4=C5C=CNC5=NC=C4 [AZD6738] (first compound max 1 µM, 7x7, partner max 10 µM) shows combination Emax at minimum 0.6?
Marked response: 1

Exam item: Would you say COc1cccc(OCCCN)c1-c1cc(Nc2cnc(C#N)cn2)n[nH]1 [Prexasertib] + Cc1cc2ncnn2cc1Nc1ncc2c(n1)n(C1CCOCC1)c(=O)n2C [AZD7648] (first compound max 1 µM, 7x7, partner max 10 µM) shows combination Emax at minimum 0.6?
Marked response: 1

Exam item: Would you say COc1cccc(OCCCN)c1-c1cc(Nc2cnc(C#N)cn2)n[nH]1 [Prexasertib] + CN(C)CCCOc1ccc(-c2ccc3ncc4c(c3c2)n(C2CCOCC2)c(=O)n4C)cn1 [AZD0156] (first compound max 1 µM, 7x7, partner max 1 µM) shows combination Emax at minimum 0.6?
Marked response: 1

Exam item: Would you say Cc1c2c(nn1C)CSCc1cc(n(C)n1)CSc1cc(c3ccccc3c1)OCCCc1c(C(=O)O)n(C)c3c-2c(Cl)ccc13 [AZD5991] + CCN(CCO)CCCOc1ccc2c(Nc3cc(CC(=O)Nc4cccc(F)c4)[nH]n3)ncnc2c1 [AZD2811] (first compound max 1 µM, 7x7, partner max 1 µM) shows combination Emax at minimum 0.6?
Marked response: -1

Exam item: Would you say CS(=O)(=O)CCNCc1ccc(-c2ccc3ncnc(Nc4ccc(OCc5cccc(F)c5)c(Cl)c4)c3c2)o1 [Lapatinib] + C[C@@H](Oc1cc(-c2cnn(C3CCNCC3)c2)cnc1N)c1c(Cl)ccc(F)c1Cl [Crizotinib] (first compound max 10 µM, 7x7, partner max 10 µM) shows combination Emax at minimum 0.6?
Marked response: 1

---

# Test system: NCI-H1694 (Small Cell Lung Carcinoma)
# Protocol Details: Bliss excess, mean over the matrix (fraction); higher = more synergy
Each entry below carries its reported Bliss excess.
Keep it simple and answer with nothing but the number.

Solved entries:
[[record]]
molecule = "CC1(C)CCC(CN2CCN(c3ccc(C(=O)NS(=O)(=O)c4ccc(NCC5CCOCC5)c([N+](=O)[O-])c4)c(Oc4cnc5[nH]ccc5c4)c3)CC2)=C(c2ccc(Cl)cc2)C1 [Venetoclax] + C[C@@H](Nc1cc(F)cc(F)c1)c1cc(C(=O)N(C)C)cc2c(=O)cc(N3CCOCC3)oc12 [AZD8186] (first compound max 1 µM, 7x7, partner max 3 µM)"
result_value = 0.0808

[[record]]
molecule = "CC1(C)CCC(CN2CCN(c3ccc(C(=O)NS(=O)(=O)c4ccc(NCC5CCOCC5)c([N+](=O)[O-])c4)c(Oc4cnc5[nH]ccc5c4)c3)CC2)=C(c2ccc(Cl)cc2)C1 [Venetoclax] + CN(C)CCCOc1ccc(-c2ccc3ncc4c(c3c2)n(C2CCOCC2)c(=O)n4C)cn1 [AZD0156] (first compound max 1 µM, 7x7, partner max 1 µM)"
result_value = -0.0001


# ---- query molecule ----
Exam item: Supply Bliss excess value. Item: COc1cccc(OCCCN)c1-c1cc(Nc2cnc(C#N)cn2)n[nH]1 [Prexasertib] + C=CCn1c(=O)c2cnc(Nc3ccc(N4CCN(C)CC4)cc3)nc2n1-c1cccc(C(C)(C)O)n1 [AZD1775] (first compound max 1 µM, partner max 1 µM)
Marked response: 0.13

---

# Tested on: NCI-H1694 (Small Cell Lung Carcinoma)
# Protocol Details: Bliss excess, mean over the matrix (fraction); higher = more synergy
Quick rule: Bliss excess of at least 0.003 means condition met, below that means condition not met.

Please review the entries below; each comes with its answer.
[[record]]
molecule = "Cc1cc2ncnn2cc1Nc1ncc2c(n1)n(C1CCOCC1)c(=O)n2C [AZD7648] + C=CCn1c(=O)c2cnc(Nc3ccc(N4CCN(C)CC4)cc3)nc2n1-c1cccc(C(C)(C)O)n1 [AZD1775] (first compound max 10 µM, partner max 1 µM)"
group_label = "condition not met"

[[record]]
molecule = "CC1(C)CCC(CN2CCN(c3ccc(C(=O)NS(=O)(=O)c4ccc(NCC5CCOCC5)c([N+](=O)[O-])c4)c(Oc4cnc5[nH]ccc5c4)c3)CC2)=C(c2ccc(Cl)cc2)C1 [Venetoclax] + C=CCn1c(=O)c2cnc(Nc3ccc(N4CCN(C)CC4)cc3)nc2n1-c1cccc(C(C)(C)O)n1 [AZD1775] (first compound max 1 µM, partner max 1 µM)"
group_label = "condition met"

[[record]]
molecule = "CC(=O)c1c(C)c2cnc(Nc3ccc(N4CCNCC4)cn3)nc2n(C2CCCC2)c1=O [Palbociclib] + Cn1cnc2c(F)c(Nc3ccc(Br)cc3Cl)c(C(=O)NOCCO)cc21 [Selumetinib] (first compound max 10 µM, 7x7, partner max 10 µM)"
group_label = "condition not met"

[[record]]
molecule = "C[C@@H](c1ccc2nccn2c1)n1nnc2ncc(-c3cnn(C)c3)nc21 [Savolitinib] + Cc1c2c(nn1C)CSCc1cc(n(C)n1)CSc1cc(c3ccccc3c1)OCCCc1c(C(=O)O)n(C)c3c-2c(Cl)ccc13 [AZD5991] (first compound max 1 µM, 7x7, partner max 1 µM)"
group_label = "condition not met"

[[record]]
molecule = "Cc1cc2ncnn2cc1Nc1ncc2c(n1)n(C1CCOCC1)c(=O)n2C [AZD7648] + CN(C)CCCOc1ccc(-c2ccc3ncc4c(c3c2)n(C2CCOCC2)c(=O)n4C)cn1 [AZD0156] (first compound max 10 µM, 7x7, partner max 1 µM)"
group_label = "condition met"

[[record]]
molecule = "C[C@@H]1COCCN1c1cc(C2([S@](C)(=N)=O)CC2)nc(-c2ccnc3[nH]ccc23)n1 [AZD6738] + O=C(c1cc(Cc2n[nH]c(=O)c3ccccc23)ccc1F)N1CCN(C(=O)C2CC2)CC1 [Olaparib] (first compound max 10 µM, 7x7, partner max 10 µM)"
group_label = "condition met"


# evaluate next
Exam item: Would you say CN(C)CCCOc1ccc(-c2ccc3ncc4c(c3c2)n(C2CCOCC2)c(=O)n4C)cn1 [AZD0156] + C=CCn1c(=O)c2cnc(Nc3ccc(N4CCN(C)CC4)cc3)nc2n1-c1cccc(C(C)(C)O)n1 [AZD1775] (first compound max 1 µM, partner max 1 µM) shows Bliss excess at minimum 0.003?
Marked response: condition not met

---

# System: NCI-H2595 (Mesothelioma)
# Protocol Details: Bliss excess, mean over the matrix (fraction); higher = more synergy
Measure Name: Bliss excess
Keep it simple and answer with nothing but the number.

[[record]]
compound = "COc1nnc2ccc(N3CCC(c4ccc(OCCN5CCN(C)C(=O)[C@H]5C)cc4)CC3)nn12 [AZD5153] + CCN(CCO)CCCOc1ccc2c(Nc3cc(CC(=O)Nc4cccc(F)c4)[nH]n3)ncnc2c1 [AZD2811] (first compound max 1 µM, 7x7, partner max 1 µM)"
measure_name = "Bliss excess"
result_value = -0.0227

[[record]]
compound = "Cn1cnc2c(F)c(Nc3ccc(Br)cc3Cl)c(C(=O)NOCCO)cc21 [Selumetinib] + C[C@@H]1COCCN1C2=NC(=NC(=C2)C3(CC3)[S@](=N)(=O)C)C4=C5C=CNC5=NC=C4 [AZD6738] (first compound max 10 µM, 7x7, partner max 10 µM)"
measure_name = "Bliss excess"
result_value = -0.0326


# ---- query compound ----
Exam item: Supply Bliss excess value. Item: CN(CCO)CC[C@H](CSc1ccccc1)Nc1ccc(S(=O)(=O)NC(=O)c2ccc(N3CCC([C@@H](O)c4ccccc4-c4ccc(Cl)cc4)CC3)cc2)cc1S(=O)(=O)C(F)(F)F [AZD4320] + Nc1ccn([C@@H]2O[C@H](CO)[C@@H](O)C2(F)F)c(=O)n1 [Gemcitabine] (first compound max 1 µM, 7x7, partner max 0.3 µM)
Marked response: -0.0542
